# study.system: T1, human TIM-3 on CHOK1 stable cell line (CHOK1-hTIM-3) (human, UniProt Q8TDQ0 22-301)
# T1 sequence: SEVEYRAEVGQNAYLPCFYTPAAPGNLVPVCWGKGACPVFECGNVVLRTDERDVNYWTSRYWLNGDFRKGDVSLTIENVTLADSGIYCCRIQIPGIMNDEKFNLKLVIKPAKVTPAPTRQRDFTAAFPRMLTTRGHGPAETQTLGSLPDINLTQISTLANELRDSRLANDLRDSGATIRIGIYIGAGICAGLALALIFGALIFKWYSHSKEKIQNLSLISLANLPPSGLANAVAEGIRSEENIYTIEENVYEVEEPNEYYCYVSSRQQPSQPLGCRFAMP
# procedure.details: FACS, CHOK1-hTIM-3 cells, 1.6 nM antibody
If the reported Mean fluorescence intensity equals or exceeds 200, assign y. If not, assign n.

Worked examples, 3 binders total:
>>> classification("34B6D8 fully human TIM-3 antibody (human IgG4, kappa) (antibody, V domains shown) VH: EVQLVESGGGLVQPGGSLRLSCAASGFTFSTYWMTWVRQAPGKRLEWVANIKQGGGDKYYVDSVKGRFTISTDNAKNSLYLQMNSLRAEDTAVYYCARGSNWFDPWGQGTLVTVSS VL: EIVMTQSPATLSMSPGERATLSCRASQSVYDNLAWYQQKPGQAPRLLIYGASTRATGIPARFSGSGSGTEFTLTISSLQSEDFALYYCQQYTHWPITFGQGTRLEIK")
"y"
>>> classification("57F4E5 fully human TIM-3 antibody (human IgG4, kappa) (antibody, V domains shown) VH: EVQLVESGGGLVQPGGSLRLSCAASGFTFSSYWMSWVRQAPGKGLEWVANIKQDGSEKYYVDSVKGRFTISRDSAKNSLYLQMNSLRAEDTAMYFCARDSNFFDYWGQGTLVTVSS VL: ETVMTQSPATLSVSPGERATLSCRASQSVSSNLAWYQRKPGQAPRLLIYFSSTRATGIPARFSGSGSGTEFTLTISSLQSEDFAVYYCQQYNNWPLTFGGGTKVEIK")
"n"
>>> classification("7A4F10 fully human TIM-3 antibody (human IgG4, kappa) (antibody, V domains shown) VH: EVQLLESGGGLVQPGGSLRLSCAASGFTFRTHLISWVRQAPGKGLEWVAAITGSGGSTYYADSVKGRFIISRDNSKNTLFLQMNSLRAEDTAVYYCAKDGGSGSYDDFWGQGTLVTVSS VL: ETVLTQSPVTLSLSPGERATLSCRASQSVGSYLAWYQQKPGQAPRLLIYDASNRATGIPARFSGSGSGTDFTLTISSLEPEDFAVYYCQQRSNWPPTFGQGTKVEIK")
"y"

In: Entry 39E5H1 fully human TIM-3 antibody (human IgG4, kappa) (antibody, V domains shown) VH: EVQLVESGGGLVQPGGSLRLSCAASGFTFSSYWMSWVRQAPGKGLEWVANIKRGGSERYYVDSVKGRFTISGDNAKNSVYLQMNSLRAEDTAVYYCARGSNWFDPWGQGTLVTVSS VL: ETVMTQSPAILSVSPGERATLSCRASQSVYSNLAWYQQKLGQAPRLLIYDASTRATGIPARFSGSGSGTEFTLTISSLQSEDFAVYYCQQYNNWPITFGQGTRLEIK : is its Mean fluorescence intensity no less than 200?
Out: n

In: Another: 18D2H2 fully human TIM-3 antibody (human IgG4, kappa) (antibody, V domains shown) VH: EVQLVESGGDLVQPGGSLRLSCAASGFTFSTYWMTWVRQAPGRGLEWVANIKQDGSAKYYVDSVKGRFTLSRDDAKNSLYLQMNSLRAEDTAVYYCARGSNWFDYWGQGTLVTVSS VL: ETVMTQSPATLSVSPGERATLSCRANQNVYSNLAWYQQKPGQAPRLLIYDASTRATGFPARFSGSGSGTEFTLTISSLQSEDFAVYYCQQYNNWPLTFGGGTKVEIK
Out: y

In: Another: 134H3G6 fully human TIM-3 antibody (human IgG4, kappa) (antibody, V domains shown) VH: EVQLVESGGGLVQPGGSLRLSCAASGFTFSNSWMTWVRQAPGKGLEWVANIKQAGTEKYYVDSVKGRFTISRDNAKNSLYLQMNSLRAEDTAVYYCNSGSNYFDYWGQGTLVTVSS VL: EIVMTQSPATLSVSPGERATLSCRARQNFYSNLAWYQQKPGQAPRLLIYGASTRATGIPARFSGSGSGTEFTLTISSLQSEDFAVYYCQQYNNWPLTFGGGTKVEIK
Out: y
